molecular target: UniProt:P43116; assay: hEP2 cAMP assay (SF295 glioblastoma cells, HTRF cAMP); settings: antagonistic activity
Sequence (P43116 whole entry): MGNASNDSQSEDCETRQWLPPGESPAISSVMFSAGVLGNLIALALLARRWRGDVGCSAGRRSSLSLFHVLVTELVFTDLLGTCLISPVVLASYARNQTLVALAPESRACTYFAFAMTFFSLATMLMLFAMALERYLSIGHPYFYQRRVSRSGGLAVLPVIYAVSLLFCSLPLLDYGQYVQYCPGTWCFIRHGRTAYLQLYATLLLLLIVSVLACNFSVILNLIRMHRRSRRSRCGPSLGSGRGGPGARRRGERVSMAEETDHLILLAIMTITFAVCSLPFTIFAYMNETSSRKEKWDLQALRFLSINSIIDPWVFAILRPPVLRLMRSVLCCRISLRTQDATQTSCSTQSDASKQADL
pIC50: −log10 of the molar value.
Recorded Endpoint: pIC50

In the examples that follow, each entry is paired with its recorded pIC50.
O=C(O)c1ccc(-c2cc(NCCc3ccc4[nH]ccc4c3)ncn2)cc1OC1CCC1 [Ex 322] | 6.09
CCOc1cc(-c2cc(NCCc3ccc4ccn(C)c4c3)ncn2)sc1C(=O)O [Ex 42] | 6.86
COc1cc2sccc2cc1CCNc1cc(-c2ccc(CC(=O)O)c(SC)c2)ncn1 [Ex 224] | 7.21

1 = CSc1cc(-c2cc(NCCc3ccc4occc4c3)ncn2)ccc1C(=O)O [Ex 248]
2 = CCOc1cc(-c2cc(NCCc3ccc4ccccc4c3Cl)ncn2)ccc1C(=O)O [Ex 260]
3 = NC(=O)c1ccc(-c2cc(NCCc3c(F)cc4ncccc4c3F)ncn2)s1 [Example 356]
Task: Sort the compounds on pIC50; start with the lowest figure. Answer format: the labels, in the requested order.
Output: 3, 2, 1
